Just for reference, PubChem BioAssay is where these values come from.

- target: Left-right determination factor 2 (Homo sapiens) (UniProt O00292)
- Sequence (O00292 whole entry, looked up): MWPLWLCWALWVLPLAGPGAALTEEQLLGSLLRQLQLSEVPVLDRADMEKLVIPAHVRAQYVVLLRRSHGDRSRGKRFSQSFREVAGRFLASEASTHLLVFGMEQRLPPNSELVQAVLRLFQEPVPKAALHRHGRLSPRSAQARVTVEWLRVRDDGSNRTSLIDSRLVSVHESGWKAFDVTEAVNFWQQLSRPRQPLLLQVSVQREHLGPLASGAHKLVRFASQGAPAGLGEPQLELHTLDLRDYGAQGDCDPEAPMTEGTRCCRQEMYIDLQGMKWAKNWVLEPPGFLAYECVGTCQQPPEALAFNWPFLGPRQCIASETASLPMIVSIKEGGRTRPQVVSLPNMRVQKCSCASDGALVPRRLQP
- assay.comment: LEFTY2 binders on small-molecule microarrays, primary screen, biochemical, small-molecule microarray, 635 nm fluorescence scan (AID 1110)
- condition.set: LEFTY2 binding, higher = more signal
Classification field: enter class 1 for composite z-score values not below 0.3, class 0 for values below it.

Record excerpt, results attached:
[[record]]
compound = "O=C1c2ccccc2[C@](Cc2ccccc2I)(C(=O)NCCN2CCOCC2)[C@H](c2ccc(CO)cc2)N1C1CCCCC1"
category = "class 1"

[[record]]
compound = "Cc1ccc(S[C@]2(C(=O)NCCCN(C)C)CC(=O)N(Cc3ccccc3C(F)(F)F)[C@@H]2c2ccc(CO)cc2)cc1"
category = "class 0"

[[record]]
compound = "O=C1O[C@H](c2ccccc2)[C@H](c2ccccc2)N2[C@H]1[C@@H](C(=O)N1CCCCCCC1)[C@]1(C(=O)Nc3ccc(C#CCCO)cc31)[C@H]2c1ccccc1OCCO"
category = "class 1"


Does "CCCCCCc1nc(-c2ccc(OC)nc2)cc2c1[Si](C(C)C)(C(C)C)O[C@H]2c1ccccc1" have a reported composite z-score of at least 0.3? class 0

Does "COC(=O)[C@@]1(CCS(=O)(=O)c2ccccc2)N=C(c2ccc(OCCCO)cc2)O[C@H]1c1ccccc1CN=[N+]=[N-]" have a reported composite z-score of at least 0.3? class 0

====

- assay.comment: RPMI8226 myeloma cell viability, profiling panel, resazurin fluorescence, basal, 24 h, PK04 Diversity Set (AID 1180);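 further: RPMI8826 multiple myeloma cell line at 5000 cells per well; test concentration not given here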
- condition.set: higher = more signal
Listed here are molecules together with their documented z-score.
I'd appreciate a reply containing only the number, no unit.

[[record]]
smi = "CO[C@H]1O[C@H](CO)[C@@H](OC(=O)Nc2ccc(Oc3ccccc3)cc2)[C@H](OC(=O)Nc2ccc3c(c2)OCO3)[C@H]1OC(=O)Nc1ccc2c(c1)OCO2"
assay_endpoint = "z-score"
measured_value = 0.404

[[record]]
smi = "CCCC[C@@H]1C[C@H]1[C@@H](NC(=O)c1ccco1)c1ccccc1C(F)(F)F"
assay_endpoint = "z-score"
measured_value = -0.594

[[record]]
smi = "COc1ccc([Si](C)(C)[C@@H]2[C@@H](CCO)O[C@]3(C(=O)N(Cc4ccc(N(C=O)c5ccccc5)cc4)c4ccccc43)[C@H]2C)cc1"
assay_endpoint = "z-score"
measured_value = -2.25


Now look at this one.
Memo: "CCOC(=O)C[C@H]1[C@H](OC(=O)c2ccc(C(=O)c3ccccc3)cc2)[C@@H](NC(=O)c2ccc3ccccc3c2)c2cc(OCCCO)ccc2N1C(=O)Cc1ccc(OC)cc1" , reported z-score: 0.287

====

- assay.comment: binders of probe aHhip on microarray, primary screen, stem cell growth factor project, biochemical, small-molecule microarray, fluorescence 635/667 (AID 1087);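 further: score merges spot fluorescence at 667nm with spot signal to noise ratio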
- condition.set: higher = more signal
Listed here are molecules together with their documented composite z-score.
I'd appreciate a reply containing only the number, no unit.

Use the examples below as a reference point.
[[record]]
molecule = "[N-]=[N+]=Nc1ccccc1[C@@H]1OC(c2ccc(OCCCO)cc2)=N[C@]1(CCS(=O)(=O)c1ccccc1)C(N)=O"
measured_value = -0.213

[[record]]
molecule = "CC(C)NC(=O)[C@@]1(C)c2ccccc2C(=O)N(Cc2cc(C(F)(F)F)cc(C(F)(F)F)c2)[C@H]1c1ccc(CO)cc1"
measured_value = -0.374

[[record]]
molecule = "COc1ccc(-c2cc3c(c(-c4ccc(Oc5ccccc5)cc4)n2)[Si](C(C)C)(C(C)C)OC3)cn1"
measured_value = -0.0994

[[record]]
molecule = "COc1cc2c(cc1O)C(c1cccs1)N(C)CC2 (stereo not given)"
measured_value = -0.0994


Memo: O=C1C2C=CC(C(O)Cc3ccccc3)N(n3cnnc3)C2C(=O)N1Cc1ccccc1 (stereo not given) , reported composite z-score: -0.186
